# measured on: HLA-B*2704 (Homo sapiens, UniProt P01889, A235G/D138H/D201E/E204Q/G107R/H137Y/K202T/N104T/N87E/Q56L/Q94K/R106L/R155S/R180L/S121N/S48T/Y140D/Y33H/Y91C)
# test details: HLA/peptide complex stability assay, RMA-S cells transfected with HLA-B*2704
# Type: cell-based
# test context: SD
pEC50: −log10 of the molar value. Ends that are not written are not given here.
value kind: pEC50

residue_sequence="RRAAAAAAAI [RRA7I]" quantitative_readout=5.15

----------
# measured on: HLA-B*2706 (Homo sapiens, UniProt P01889, A235G/D201E/E204Q/G107R/H137Y/K202T/N104T/N87E/Q56L/Q94K/R106L/R155S/R180L/S121N/S48T/Y33H/Y91C)
# Construct: expressed in transfected cells; host or cells: RMA-S (TAP-deficient murine cell line)
# test details: HLA/peptide complex stability assay, RMA-S cells transfected with HLA-B*2706
# Format: cell-based
# test context: Table 2; peptide concentration at 50% of maximum fluorescence, range 0.01–200 µM; transfected RMA-S cells, flow cytometry; mean ± S.D. of three to five independent experiments; - = no statistical difference in fluorescence index to negative control; SD; read-out: EC50, B*2706
Ends that are not written are not given here.
value kind: EC50 (nM)

residue_sequence="KRAVGIGAL [HIV gp160 500-508, reference compound]" quantitative_readout=1000
residue_sequence="RRYPDAVYL [MV F 438-466, reference compound]" quantitative_readout=2000

----------
# measured on: HLA-B*2702 (Homo sapiens, UniProt P01889, D138H/D201E/E176V/E204Q/G107R/H137Y/K202T/L105A/N104I/N87E/Q56L/Q94K/R106L/R155S/R180L/S101N/S121N/S48T/Y140D/Y33H/Y91C)
# test details: HLA/peptide complex stability assay, RMA-S cells transfected with HLA-B*2702
# Format: cell-based
# test context: read-out: EC50, B*2702
Ends that are not written are not given here.
value kind: EC50

residue_sequence="LRNEESEKMAK [P 198-208]" result="> 200 µM"

----------
# measured on: HLA-B*2701 (Homo sapiens, UniProt P01889, D138H/D201E/D98Y/E176V/E204Q/G107R/H137Y/K202T/L105A/N104T/N87E/Q56L/Q94K/R106L/R155S/R180L/S101N/S121N/S48T/Y140D/Y33H/Y91C)
# Construct: expressed in transfected cells; host or cells: RMA-S (TAP-deficient murine cell line)
# test details: HLA/peptide complex stability assay, RMA-S cells transfected with HLA-B*2701
# Type: cell-based
# test context: SD
Ends that are not written are not given here.
value kind: EC50

residue_sequence="RRAAAAAAAI [RRA7I]" result="7 µM"

----------
pEC50 values by entry
# measured on: HLA-B*2702 (Homo sapiens, UniProt P01889, D138H/D201E/E176V/E204Q/G107R/H137Y/K202T/L105A/N104I/N87E/Q56L/Q94K/R106L/R155S/R180L/S101N/S121N/S48T/Y140D/Y33H/Y91C)
# test details: HLA/peptide complex stability assay, RMA-S cells transfected with HLA-B*2702
# Type: cell-based
# test context: relative affinity (EC50 class), B*2702
pEC50: −log10 of the molar value. Ends that are not written are not given here.
value kind: pEC50

residue_sequence="GRNEVFSNK [L 2089-2097]" value_kind=pEC50 result="< 3.70"
residue_sequence="HRQDINGKEM [NP 100-109]" value_kind=pEC50 result="3.70 to 4.21"
residue_sequence="KRLPADVLKK [M2 150-159]" value_kind=pEC50 result="3.70 to 4.21"
residue_sequence="LRNEESEKMAK [P 198-208]" value_kind=pEC50 result="< 3.70"
residue_sequence="HRFIYLINH [NS2 37-45]" value_kind=pEC50 result="3.70 to 4.21"
residue_sequence="SRSALLAQM [M 76-84]" value_kind=pEC50 result="< 3.70"
residue_sequence="VRNKDLNTL [M 169-177]" value_kind=pEC50 result="3.70 to 4.21"
residue_sequence="RRANNVLKNEM [NP 184-194]" value_kind=pEC50 result="4.22 to 4.70"
